assay-protocol: amyloid nucleation score (Sup35N fusion, yeast selection) (log enrichment); library NNK1; higher = more nucleation; inactive = no reads after selection;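 also: zero at mode of non-aggregating sequences after 7 days selection at 30°C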
# binning rule on amyloid nucleation score: class 0 (below -0.02), class 1 (-0.02 to below 1), class 2 (1 or more)

Use these answered entries as a reference point.
{"substance": "YDWNNLDVLLHCLFFGDKRR", "class-name": "class 0"}
{"substance": "PFRGDGIGYISVGGWFVQDN", "class-name": "class 0"}
{"substance": "QIFVWAFPPSGVSGHVWSRD", "class-name": "class 2"}
{"substance": "KHYFCKMSV", "class-name": "class 0"}
{"substance": "FSYTDNSTRFVTFQLRNIPA", "class-name": "class 1"}

Challenge: Bin? LVVAVW
Response given: class 1

Challenge: Next record, please: PGRTLIVFFCVVVCQCEDNR
Response given: class 2

Challenge: Next record, please: WSCTSCFNYGLF
Response given: class 2

Challenge: Next record, please: GNSVIDRSFGIFNCYEGLSC
Response given: class 2

Challenge: Next record, please: LKTRALASGWEAECADRGGV
Response given: class 0

Challenge: Next record, please: GFGMFATTGKVLSMRAFQ
Response given: class 1

Challenge: Next record, please: GVRAVLFETWCRN
Response given: class 0

Challenge: Next record, please: RYKNSIDSESVINRLLWDAT
Response given: class 1
